Taken from patent US20180086841A1.

assayedSystem: T1, human CD27 (human, UniProt P26842 21-260)
T1 construct: also called hCD27; HsCD27
measurementDescription: flow cytometry MFI, CD8+ T cells of human PBMC, N=2 donors
Known pEC50 of a selection of binders
# log scale: pEC50 equals minus log10 of the concentration in mol/L

Some solved entries appear below for comparison.
>  <binder>
hCD27.131A VH8VL8 huIgG1 (antibody, V domains shown) VH: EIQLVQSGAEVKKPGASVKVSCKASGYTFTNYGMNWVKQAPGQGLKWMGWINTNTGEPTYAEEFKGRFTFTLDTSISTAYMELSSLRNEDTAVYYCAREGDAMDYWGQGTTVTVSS VL: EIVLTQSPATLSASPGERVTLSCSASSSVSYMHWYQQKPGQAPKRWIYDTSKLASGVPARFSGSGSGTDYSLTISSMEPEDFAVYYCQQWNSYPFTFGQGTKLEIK

>  <reportedResult>
9.88

$$$$
>  <binder>
hCD27.131A VH6VL7 huIgG1 (antibody, V domains shown) VH: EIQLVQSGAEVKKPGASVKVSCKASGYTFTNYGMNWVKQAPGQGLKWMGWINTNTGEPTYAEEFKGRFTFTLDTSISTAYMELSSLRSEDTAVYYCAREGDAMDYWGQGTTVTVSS VL: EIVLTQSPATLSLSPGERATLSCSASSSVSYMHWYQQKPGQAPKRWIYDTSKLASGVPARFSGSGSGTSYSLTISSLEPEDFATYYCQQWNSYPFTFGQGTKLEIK

>  <reportedResult>
9.96

$$$$
>  <binder>
hCD27.131A (mouse parental 131A) (antibody, mouse IgG1, V domains shown, Mouse IgG1 antibody; also called mouse hCD27.131A) VH: QIQLVQSGPELKKPGETVKISCKASGYTFTNYGMNWVKQAPGKGLKWMGWINTNTGEPTYAEEFKGRFAFSLETSATTAYLQINNLKNEDTATYFCAREGDAMDYWGQGTSVTVSS VL: QIVLTQSPAIMSASPGEKVTMTCSASSSVSYMHWYQQKSGTSPKRWIYDTSKLASGVPARFSGSGSGTSYSLTISSMEAEDAATYYCQQWNSYPFTFGSGTKLEIK

>  <reportedResult>
10.71

$$$$

Please look at the following binder next.
Identify the reported pEC50 for the following entry. hCD27.131A VH6VL8 huIgG1 (antibody, V domains shown) VH: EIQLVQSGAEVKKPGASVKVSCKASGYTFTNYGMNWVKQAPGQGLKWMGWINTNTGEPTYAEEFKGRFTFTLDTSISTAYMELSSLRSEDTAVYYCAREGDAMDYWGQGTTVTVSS VL: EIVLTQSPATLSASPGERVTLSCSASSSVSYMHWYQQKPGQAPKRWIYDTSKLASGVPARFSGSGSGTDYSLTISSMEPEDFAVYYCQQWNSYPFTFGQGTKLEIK
9.91
